- System: HepG2-TUBA1B-RELA
- Protocol: phenotypically active (imaging signature differs from DMSO and reproducible) at any of 0.3-9 uM (binary (1 = active, 0 = inactive)); higher = active
- Conditions Used: treatment time: 24 h
Structures can show the parent of a compound that is named as a salt.
Permitted responses: 1 = active, 0 = inactive

Study these solved cases before continuing.
>  <Compound>
O=C(NC(NC(=S)Nc1ccc(F)c([N+](=O)[O-])c1)C(Cl)(Cl)Cl)C(c1ccccc1)c1ccccc1 (stereo unspecified)

>  <Label Value>
1

$$$$
>  <Compound>
O=C(O)CCCC[C@@H]1SC[C@@H]2NC(=O)N[C@@H]21 [Biotin]

>  <Label Value>
0

$$$$
>  <Compound>
COc1ccc(N(C)c2nc(C)nc3ccccc23)cc1 [MPC 6827 hydrochloride]

>  <Label Value>
1

$$$$

**Query** Test call for this compound, please: CC(=O)[C@H]1CC[C@H]2[C@@H]3C=CC4=CC(=O)CC[C@@]4(C)[C@@H]3CC[C@]12C [dydrogesterone]
**Result** 0

**Query** Dear all, I need the recorded test outcome for Cc1cc(C(C)(C)C)c(O)c(C)c1CC1=NCCN1 [oxymetazoline] , thank you.
**Result** 0

**Query** GET /call?item= COc1ccc(OC)c(C(O)CNC(=O)CN)c1 (stereo unspecified) [midodrine] returns the recorded outcome of this test.
**Result** 0

**Query** Entry CCc1nn(CCCN2CCN(c3cccc(Cl)c3)CC2)c(=O)n1CCOc1ccccc1 [nefazodone] : call = ?
**Result** 0

**Query** Returns: the outcome recorded for CC(=C/[C@@H](C)C(=O)c1ccc(N(C)C)cc1)/C=C/C(=O)NO [Trichostatin A] in this assay.
**Result** 1

**Query** Could you check what this test reported for O=c1cc(-c2cccc3c2Sc2ccccc2S3)oc(N2CCOCC2)c1 ?
**Result** 1

Every entry's value here was drawn from the supplement of paper PMC7411054.
